From: paper PMC12664493

tested_on: BCRP (Homo sapiens, UniProt Q9UNQ0)
Construct: endogenous in cells; host or cells: Caco-2
assay_info: Caco-2-BCRP assay with and without Ko143
Format: in vitro ADME
assay_conditions: human, Caco-2; Ko143 0 μM
Recorded Papp A→B values for a group of compounds are listed next.
reported_property: Papp A→B

compound="CC(C)(C)NCC(O)COc1cccc2c1CC(O)C(O)C2 (stereo not drawn) [Nadolol, reference compound]" reported="0.272 ×10⁻⁶ cm/s"
compound="CC(C)NCC(O)COc1cccc2ccccc12 (stereo not drawn) [Propranolol, reference compound]" reported="29.3 ×10⁻⁶ cm/s"
compound="CC(C)Nc1nnc(Nc2cc(CO)c(N3CCOCC3)c3nonc23)s1 [11a-isopropyl]" reported="12.1 ×10⁻⁶ cm/s"

---

tested_on: BCRP (Homo sapiens)
Construct: endogenous in cells; host or cells: Caco-2
assay_info: Caco-2-BCRP assay with and without Ko143
Type: in vitro ADME
assay_conditions: human, Caco-2, with Ko143 2 μM
reported_property: Papp A→B (×10⁻⁶ cm/s)

molecule="CC(C)Nc1nnc(Nc2cc(CO)c(N3CCOCC3)c3nonc23)s1 [11a-isopropyl]" reported=15.7

---

assay_info: Solubility (pH 7.4, PBS)
Type: physicochemical
assay_conditions: aqueous buffer, pH 7.4, read-out: Solubility (pH, media)
reported_property: solubility (µg/mL)

molecule="OCc1cc(Nc2nnc(N3CCCC3)s2)c2nonc2c1N1CCOCC1 [11a-pentyl]" measurement_unit=µg/mL reported=5030
molecule="CNc1nnc(Nc2cc(CO)c(N3CCOCC3)c3nonc23)s1 [11a]" measurement_unit=µg/mL reported=150000
molecule="CC(C)Nc1nnc(Nc2cc(CO)c(N3CCOCC3)c3nonc23)s1 [11a-isopropyl]" measurement_unit=µg/mL reported=2450

---

Recorded Papp values for a group of compounds are listed next.
assay_info: PAMPA-BBB permeability assay
Type: in vitro ADME
assay_conditions: read-out: Permeability-PAMPA-BBB Pe
reported_property: Papp

compound="OCc1cc(Nc2nnc(N3CCCC3)s2)c2nonc2c1N1CCOCC1 [11a-pentyl]" reported="10.4 ×10⁻⁶ cm/s"
compound="CC(C)Nc1nnc(Nc2cc(CO)c(N3CCOCC3)c3nonc23)s1 [11a-isopropyl]" reported="8.4 ×10⁻⁶ cm/s"
compound="CNc1nnc(Nc2cc(CO)c(N3CCOCC3)c3nonc23)s1 [11a]" reported="1.62 ×10⁻⁶ cm/s"

---

assay_info: In vivo pharmacokinetics in CD-1 (ICR) mice, plasma and brain, LC-MS/MS
assay_conditions: male, CD-1 (ICR), mouse, brain, iv, 2 mg/kg, I.V. 2 mg/kg, read-out: Brain t1/2 (converted)
reported_property: half-life

molecule="CC(C)Nc1nnc(Nc2cc(CO)c(N3CCOCC3)c3nonc23)s1 [11a-isopropyl]" reported="~2 h"

---

Recorded recovery values for a group of compounds are listed next.
tested_on: BCRP (Homo sapiens, UniProt Q9UNQ0)
Construct: endogenous in cells; host or cells: Caco-2
Sequence (Q9UNQ0 1-655): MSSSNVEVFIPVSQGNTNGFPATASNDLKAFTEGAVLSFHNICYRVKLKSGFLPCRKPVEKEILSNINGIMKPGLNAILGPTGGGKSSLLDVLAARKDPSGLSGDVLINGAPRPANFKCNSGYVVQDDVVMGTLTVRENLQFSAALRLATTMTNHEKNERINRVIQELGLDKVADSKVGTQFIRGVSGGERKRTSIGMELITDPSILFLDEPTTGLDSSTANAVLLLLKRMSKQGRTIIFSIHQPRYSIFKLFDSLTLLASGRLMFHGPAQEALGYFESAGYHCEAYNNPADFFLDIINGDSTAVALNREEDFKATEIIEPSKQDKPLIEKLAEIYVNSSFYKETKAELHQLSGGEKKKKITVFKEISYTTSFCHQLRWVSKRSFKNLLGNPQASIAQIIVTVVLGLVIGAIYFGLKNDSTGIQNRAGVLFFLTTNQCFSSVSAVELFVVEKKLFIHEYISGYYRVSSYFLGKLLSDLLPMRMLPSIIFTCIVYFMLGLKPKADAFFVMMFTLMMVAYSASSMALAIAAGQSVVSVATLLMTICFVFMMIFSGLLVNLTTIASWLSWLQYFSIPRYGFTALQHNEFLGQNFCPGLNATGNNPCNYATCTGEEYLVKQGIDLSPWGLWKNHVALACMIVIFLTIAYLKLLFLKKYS
assay_info: Caco-2-BCRP assay with and without Ko143
Assay type: in vitro ADME
assay_conditions: human, Caco-2; Ko143 0 μM; read-out: Recovery (%) A→B
reported_property: recovery (%)

compound="CC(C)NCC(O)COc1cccc2ccccc12 (stereo not drawn) [Propranolol, reference compound]" tested_on="BCRP (Homo sapiens, UniProt Q9UNQ0)" reported=93.5
compound="CC(C)Nc1nnc(Nc2cc(CO)c(N3CCOCC3)c3nonc23)s1 [11a-isopropyl]" tested_on="BCRP (Homo sapiens, UniProt Q9UNQ0)" reported=91.8
compound="CC(C)(C)NCC(O)COc1cccc2c1CC(O)C(O)C2 (stereo not drawn) [Nadolol, reference compound]" tested_on="BCRP (Homo sapiens, UniProt Q9UNQ0)" reported=91.5
